Let's look at some IC50 data for 5-hydroxytryptamine receptor 2B (Homo sapiens) that I collected from the literature.
The label is true for IC50 below 2000 nM and false for IC50 equal to or exceeding 2000 nM.

[
  {
    "smiles.input": "COc1cc(/C=C/C(=O)NCCn2c(C)cc3ccccc32)cc(OC)c1OC",
    "class.label": "false"
  },
  {
    "smiles.input": "CN(C)Cc1nc(-c2ccc(C(C)(C)C)cc2)n(-c2cccc(O)c2)n1",
    "class.label": "false"
  },
  {
    "smiles.input": "c1ccc(-n2cc(-c3ccnc4ccccc34)cn2)cc1",
    "class.label": "true"
  },
  {
    "smiles.input": "Cc1cc(N2CCN(C)CC2)nc2ccc(NC(=O)COc3ccc(C(F)(F)F)cc3)cc12",
    "class.label": "true"
  },
  {
    "smiles.input": "Cc1cc(-c2ccc3c(c2)CC[C@H]3N2CC3(CCN(C(=O)Cc4cn5cc(C)sc5n4)CC3)C2)ncn1",
    "class.label": "false"
  },
  {
    "smiles.input": "Nc1nc(Cl)ncc1-c1c[nH]c2cccc(O)c12",
    "class.label": "false"
  },
  {
    "smiles.input": "COc1ccc(CCN(CCCc2ccccc2F)CCc2ccc3c(c2)OCO3)cc1OC",
    "class.label": "true"
  },
  {
    "smiles.input": "Cc1cc(N2CCN(C)CC2)nc2ccc(NC(=O)COc3ccc(Cl)cc3)cc12",
    "class.label": "true"
  },
  {
    "smiles.input": "Cc1nc(N2CCCC2)nc2ccc(NC(=O)COc3ccc(Cl)cc3)cc12",
    "class.label": "true"
  },
  {
    "smiles.input": "COc1c(S(C)(=O)=O)ccc(O[C@@H](C)C(F)(F)F)c1C(=O)N1CC(c2ncc(C(F)(F)F)cc2Cl)C1",
    "class.label": "true"
  },
  {
    "smiles.input": "Fc1ccc(-c2noc(C3CCN(c4cnc5ccc(Cl)cc5c4)CC3)n2)c(Cl)c1",
    "class.label": "false"
  }
]
